Molecular target: Cytochrome P450 1A2 (Homo sapiens) (UniProt P05177)
Sequence (P05177 whole entry, looked up): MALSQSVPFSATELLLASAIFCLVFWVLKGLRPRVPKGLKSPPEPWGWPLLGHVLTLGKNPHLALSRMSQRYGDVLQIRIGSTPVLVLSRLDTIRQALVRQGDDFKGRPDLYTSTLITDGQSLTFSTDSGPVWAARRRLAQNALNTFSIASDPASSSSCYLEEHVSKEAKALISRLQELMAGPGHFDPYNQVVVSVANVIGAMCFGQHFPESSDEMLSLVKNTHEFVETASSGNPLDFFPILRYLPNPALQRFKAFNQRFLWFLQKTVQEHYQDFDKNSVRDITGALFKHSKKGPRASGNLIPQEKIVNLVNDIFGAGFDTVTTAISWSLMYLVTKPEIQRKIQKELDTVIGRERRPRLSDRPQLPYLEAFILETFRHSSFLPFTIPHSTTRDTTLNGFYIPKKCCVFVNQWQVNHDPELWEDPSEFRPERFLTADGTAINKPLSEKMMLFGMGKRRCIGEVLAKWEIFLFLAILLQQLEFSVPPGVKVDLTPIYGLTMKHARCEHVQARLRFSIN
Test: Cytochrome panel assay with activity outcomes
Settings: recombinant CYP, pro-luciferin dealkylation, luminescence, p450-cyp1a2; series mostly up to 57.1 µM
Among all 16,000 compounds or so, about 5,700 (36%) were called active. Inconclusive results (about 24%) are left out. Calls come from the whole dose curve; as a rule, active = well fitted curve in the direction sought with a large enough effect; inconclusive = small, poorly fitted or top-dose-only effect, or effect the other way; inactive = no such curve, though single readings can be large or run the other way. Some of the results follow.
Choose the fitting class; nothing outside active, inactive is accepted.

Q: Test call, this molecule: C[C@@]12CCC(=O)C=C1CC[C@@H]1[C@@H]2[C@H](O)C[C@]2(C)[C@@H]1CC[C@]2(O)C(=O)COC(=O)CCC(=O)O
Result: inactive

Q: Test call, this molecule: COCCNC(=O)CSc1ncnc2sccc12
Result: inactive

Q: Test call, this molecule: Cc1cccc(C)c1NC(=O)/C(C#N)=C/c1cccs1
Result: active

Q: Test call, this molecule: CCOC(=O)N1CCN(c2nc(-c3cccs3)cc(C(F)(F)F)n2)CC1
Result: active

Q: Test call, this molecule: CN[C@]1(C)[C@@H]2CC[C@@H](C2)C1(C)C
Result: inactive

Q: Test call, this molecule: CCCn1cnc2c1c(=O)n(CCCCC(C)=O)c(=O)n2C
Result: active

Q: Test call, this molecule: CCN(CCO)C[C@H]1CCC[C@H]2CCCC[C@@H]21
Result: active

Q: Test call, this molecule: CCCC(=O)NNC(=O)Nc1ccccc1
Result: inactive

Q: Test call, this molecule: Cc1cccc(C)c1NC(=O)C[N+](C)(C)C
Result: inactive

Q: Test call, this molecule: CCOC(=O)N1CCN(C(=O)CNCc2cccs2)CC1
Result: inactive

Q: Test call, this molecule: Cc1ccc(-n2c(C)cc(/C=C(\C#N)C(=O)NCC3CCCO3)c2C)cc1 (stereo unspecified)
Result: inactive
